- test: AUC (0 to infinity) in ICR mouse at 15 mg/kg, iv administered as single dose and measured for 8 hrs by LC-MS/MS analysis
- Assay type: ADME, organism-based
- Parameters: time 8 hrs, dose 15 mg/kg, route iv
- reported conditions: in vivo
endpoint name: AUC(0-inf) (ng·h/mL)
Quick note: give the figure in ng·h/mL, leave out the unit.

GET /value?item= O=C1NCc2c1c1c3cc(O)ccc3[nH]c1c1[nH]c3ccccc3c21 &field=AUC(0-inf) returns 6250

====

endpoint name: IC50

Per the reported Rho-associated protein kinase 2 (Homo sapiens) data, C[C@]12O[C@H](C[C@@H](O)[C@H]1O)n1c3ccccc3c3c4c(c5c6ccccc6n2c5c31)CNC4=O has IC50 of 2880 nM

Per the reported Rho-associated protein kinase 2 (Homo sapiens) data, O=C1NC(=O)c2c1c1c3ccccc3[nH]c1c1[nH]c3c(O)cccc3c21 has IC50 of > 500 nM

Per the reported Rho-associated protein kinase 2 (Homo sapiens) data, CN1Cc2c(c3c4ccccc4[nH]c3c3[nH]c4ccccc4c23)C1=O has IC50 of 510 nM

Per the reported Rho-associated protein kinase 2 (Homo sapiens) data, CO[C@@H]1[C@@H](O)[C@@H](O)[C@H]2O[C@]1(C)n1c3ccccc3c3c4c(c5c6ccccc6n2c5c31)C(=O)N[C@H]4OC has IC50 of > 500 nM

====

- test: Half life in ICR mouse at 15 mg/kg, iv administered as single dose and measured for 8 hrs by LC-MS/MS analysis
- Type: ADME, organism-based
- reported conditions: in vivo
endpoint name: half-life (h)
Quick note: give the figure in h, leave out the unit.

GET /value?item= O=C1NCc2c1c1c3cc(O)ccc3[nH]c1c1[nH]c3ccccc3c21 &field=half-life returns 1.51

====

- test: AUC (0 to t) in ICR mouse at 15 mg/kg, iv administered as single dose and measured for 8 hrs by LC-MS/MS analysis
- Format: ADME, organism-based
- Parameters: time 8 hrs, dose 15 mg/kg, route iv
- reported conditions: in vivo
endpoint name: AUC(0-t) at 8 h (ng·h/mL)
Quick note: give the figure in ng·h/mL, leave out the unit.

GET /value?item= O=C1NCc2c1c1c3cc(O)ccc3[nH]c1c1[nH]c3ccccc3c21 &field=AUC(0-t) at 8 h returns 6240

====

pIC50: −log10 of the molar value.
endpoint name: pIC50

Per the reported Rho-associated protein kinase 2 (Homo sapiens, UniProt O75116) data, COC(=O)[C@@]1(O)C[C@H]2O[C@]1(C)n1c3ccccc3c3c4c(c5c6ccccc6n2c5c31)C(=O)NC4 [K-252A] has pIC50 of < 6.30

Per the reported Rho-associated protein kinase 2 (Homo sapiens, UniProt O75116) data, COc1ccc2[nH]c3c4[nH]c5ccccc5c4c4c(c3c2c1)CNC4=O has pIC50 of < 6.30

Per the reported Rho-associated protein kinase 2 (Homo sapiens, UniProt O75116) data, CC(C)(C)c1ccc2[nH]c3c4[nH]c5ccccc5c4c4c(c3c2c1)C(=O)NC4=O has pIC50 of < 6.30

Per the reported Rho-associated protein kinase 2 (Homo sapiens, UniProt O75116) data, C[C@@H]1O[C@@H](n2c3ccc(O)cc3c3c4c(c5c6ccccc6[nH]c5c32)CNC4=O)[C@H](O)[C@H](O)[C@H]1O has pIC50 of 7.12

Per the reported Rho-associated protein kinase 2 (Homo sapiens, UniProt O75116) data, COC(=O)[C@]1(O)C[C@H]2O[C@]1(C)n1c3ccccc3c3c4c(c5c6ccccc6n2c5c31)C(=O)NC4 has pIC50 of < 6.30

Per the reported Rho-associated protein kinase 2 (Homo sapiens, UniProt O75116) data, COc1ccc2[nH]c3c4[nH]c5ccc(O)cc5c4c4c(c3c2c1)C(=O)NC4 has pIC50 of 6.34

Per the reported Rho-associated protein kinase 2 (Homo sapiens, UniProt O75116) data, O=C1NCc2c1c1c3ccccc3[nH]c1c1[nH]c3cc(O)ccc3c21 has pIC50 of 6.70

Per the reported Rho-associated protein kinase 2 (Homo sapiens, UniProt O75116) data, CO[C@H]1NC(=O)c2c1c1c3ccccc3n3c1c1c2c2ccccc2n1[C@@H]1O[C@@]3(C)[C@H](OC)[C@@H](O)[C@H]1O has pIC50 of < 6.30

====

- test: Oral bioavailability in ICR mouse at 20 mg/kg administered as single dose and measured for 8 hrs by LC-MS/MS analysis
- Type: ADME, organism-based
- reported conditions: in vivo
endpoint name: bioavailability

GET /value?item= O=C1NCc2c1c1c3cc(O)ccc3[nH]c1c1[nH]c3ccccc3c21 &field=bioavailability returns < 1%

====

endpoint name: log10 IC50 (log10 of the value in nM)
Values are log10 of IC50 in nM.

Per the reported Rho-associated protein kinase 2 (Homo sapiens, UniProt O75116) data, C[C@H]1O[C@@H]2C[C@](O)([C@H]1O)n1c3ccccc3c3c4c(c5c6cc(O)ccc6n2c5c31)C(=O)NC4 has log10 IC50 of 2.08

Per the reported Rho-associated protein kinase 2 (Homo sapiens, UniProt O75116) data, CO[C@@H]1[C@@H](O)[C@@H](O)[C@H]2O[C@]1(C)n1c3ccccc3c3c4c(c5c6ccccc6n2c5c31)C(=O)NC4 has log10 IC50 of 2.84

Per the reported Rho-associated protein kinase 2 (Homo sapiens, UniProt O75116) data, CO[C@@H]1[C@H](N(C)C(C)=O)C[C@H]2O[C@]1(C)n1c3ccccc3c3c4c(c5c6ccccc6n2c5c31)C(=O)NC4 has log10 IC50 of 2.76

Per the reported Rho-associated protein kinase 2 (Homo sapiens, UniProt O75116) data, CNC(=O)C[C@H]1O[C@@](C)(C(=O)OC)n2c3ccccc3c3c4c(c5c6ccccc6n1c5c32)C(=O)NC4 has log10 IC50 of 3.43

Per the reported Rho-associated protein kinase 2 (Homo sapiens, UniProt O75116) data, COC(=O)[C@H]1C[C@H]2O[C@]1(C)n1c3ccccc3c3c4c(c5c6ccccc6n2c5c31)C(=O)NC4 has log10 IC50 of 2.57

Per the reported Rho-associated protein kinase 2 (Homo sapiens, UniProt O75116) data, CO[C@@H]1[C@H](NC(=O)C(=O)c2c[nH]c3ccccc23)C[C@H]2O[C@]1(C)n1c3ccccc3c3c4c(c5c6ccccc6n2c5c31)C(=O)NC4 has log10 IC50 of 3.68

Per the reported Rho-associated protein kinase 2 (Homo sapiens, UniProt O75116) data, C[C@]12O[C@H](C[C@@H](N)[C@H]1O)n1c3ccccc3c3c4c(c5c6ccccc6n2c5c31)C(=O)NC4=O has log10 IC50 of 2.56

Per the reported Rho-associated protein kinase 2 (Homo sapiens, UniProt O75116) data, O=C1NC(=O)c2c1c1c3ccccc3[nH]c1c1[nH]c3cc(O)ccc3c21 has log10 IC50 of 2.72

Per the reported Rho-associated protein kinase 2 (Homo sapiens, UniProt O75116) data, COC1NC(=O)c2c1c1c3ccccc3[nH]c1c1[nH]c3ccc(O)cc3c21 (stereo not given) has log10 IC50 of 2.51

Per the reported Rho-associated protein kinase 2 (Homo sapiens, UniProt O75116) data, CO[C@@H]1[C@@H](O)C[C@H]2O[C@]1(C)n1c3ccccc3c3c4c(c5c6ccccc6n2c5c31)C(=O)NC4 has log10 IC50 of 2.86

Per the reported Rho-associated protein kinase 2 (Homo sapiens, UniProt O75116) data, COC(=O)[C@@]1(OC)C[C@H]2O[C@]1(C)n1c3ccccc3c3c4c(c5c6ccccc6n2c5c31)C(=O)NC4 has log10 IC50 of 2.52

====

- test: Volume of distribution at steady state in ICR mouse at 15 mg/kg, iv administered as single dose and measured for 8 hrs by LC-MS/MS analysis
- Format: ADME, organism-based
- reported conditions: in vivo, read-out: Vdss
endpoint name: Vd (L/kg)
Quick note: give the figure in L/kg, leave out the unit.

GET /value?item= O=C1NCc2c1c1c3cc(O)ccc3[nH]c1c1[nH]c3ccccc3c21 &field=Vd returns 0.32

====

- test: Cmax in ICR mouse at 15 mg/kg, iv administered as single dose and measured for 8 hrs by LC-MS/MS analysis
- Assay type: ADME, organism-based
- Design: time 8 hrs, dose 15 mg/kg, route iv
- reported conditions: in vivo
endpoint name: Cmax (ng/mL)
Quick note: give the figure in ng/mL, leave out the unit.

GET /value?item= O=C1NCc2c1c1c3cc(O)ccc3[nH]c1c1[nH]c3ccccc3c21 &field=Cmax returns 21600

====

- tested on: Mitogen-activated protein kinase kinase kinase 5 (Homo sapiens)
- Sequence (Q99683 whole entry): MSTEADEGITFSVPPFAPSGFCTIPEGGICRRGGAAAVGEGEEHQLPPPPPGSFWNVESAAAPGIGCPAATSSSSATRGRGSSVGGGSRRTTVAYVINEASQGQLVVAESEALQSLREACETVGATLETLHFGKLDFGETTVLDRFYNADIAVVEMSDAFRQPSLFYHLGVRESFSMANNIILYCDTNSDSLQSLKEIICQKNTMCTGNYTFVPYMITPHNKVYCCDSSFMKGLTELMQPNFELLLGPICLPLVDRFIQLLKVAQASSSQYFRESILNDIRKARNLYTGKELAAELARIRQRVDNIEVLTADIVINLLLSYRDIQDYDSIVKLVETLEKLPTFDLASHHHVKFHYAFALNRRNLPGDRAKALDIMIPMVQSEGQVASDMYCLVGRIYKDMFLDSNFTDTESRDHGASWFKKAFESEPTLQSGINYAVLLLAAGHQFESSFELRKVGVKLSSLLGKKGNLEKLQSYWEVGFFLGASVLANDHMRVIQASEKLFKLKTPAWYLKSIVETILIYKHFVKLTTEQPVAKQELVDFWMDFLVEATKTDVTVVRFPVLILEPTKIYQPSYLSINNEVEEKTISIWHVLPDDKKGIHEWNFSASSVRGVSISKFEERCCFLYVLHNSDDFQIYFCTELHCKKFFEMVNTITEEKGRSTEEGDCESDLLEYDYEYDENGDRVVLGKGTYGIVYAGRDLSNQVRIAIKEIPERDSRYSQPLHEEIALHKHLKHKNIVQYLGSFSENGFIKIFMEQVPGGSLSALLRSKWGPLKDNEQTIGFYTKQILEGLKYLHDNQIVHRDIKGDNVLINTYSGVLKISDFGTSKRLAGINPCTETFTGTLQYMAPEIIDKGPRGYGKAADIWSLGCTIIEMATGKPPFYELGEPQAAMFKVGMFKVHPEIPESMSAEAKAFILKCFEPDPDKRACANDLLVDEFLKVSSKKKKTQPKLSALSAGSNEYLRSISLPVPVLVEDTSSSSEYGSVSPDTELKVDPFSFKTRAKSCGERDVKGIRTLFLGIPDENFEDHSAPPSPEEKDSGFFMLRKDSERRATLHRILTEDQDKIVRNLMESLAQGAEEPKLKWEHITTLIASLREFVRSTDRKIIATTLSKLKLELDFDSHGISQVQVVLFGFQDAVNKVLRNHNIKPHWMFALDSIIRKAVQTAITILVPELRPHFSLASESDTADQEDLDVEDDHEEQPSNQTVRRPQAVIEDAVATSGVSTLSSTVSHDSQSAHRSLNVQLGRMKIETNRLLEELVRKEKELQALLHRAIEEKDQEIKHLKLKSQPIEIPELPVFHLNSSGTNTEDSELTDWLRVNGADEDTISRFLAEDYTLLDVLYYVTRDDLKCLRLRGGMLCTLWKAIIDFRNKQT
- test: Inhibition of ASK1 (unknown origin)
endpoint name: IC50 (nM)
Quick note: give the figure in nM, leave out the unit.

GET /value?item= O=C1NCc2c1c1c3cc(O)ccc3[nH]c1c1[nH]c3ccccc3c21 &field=IC50 returns 944
